Where these numbers come from: PubChem BioAssay

inhibition values, listed per item
Molecular target: PEG-3 (UniProt Q6IN02)
Sequence (Q6IN02 whole entry, looked up): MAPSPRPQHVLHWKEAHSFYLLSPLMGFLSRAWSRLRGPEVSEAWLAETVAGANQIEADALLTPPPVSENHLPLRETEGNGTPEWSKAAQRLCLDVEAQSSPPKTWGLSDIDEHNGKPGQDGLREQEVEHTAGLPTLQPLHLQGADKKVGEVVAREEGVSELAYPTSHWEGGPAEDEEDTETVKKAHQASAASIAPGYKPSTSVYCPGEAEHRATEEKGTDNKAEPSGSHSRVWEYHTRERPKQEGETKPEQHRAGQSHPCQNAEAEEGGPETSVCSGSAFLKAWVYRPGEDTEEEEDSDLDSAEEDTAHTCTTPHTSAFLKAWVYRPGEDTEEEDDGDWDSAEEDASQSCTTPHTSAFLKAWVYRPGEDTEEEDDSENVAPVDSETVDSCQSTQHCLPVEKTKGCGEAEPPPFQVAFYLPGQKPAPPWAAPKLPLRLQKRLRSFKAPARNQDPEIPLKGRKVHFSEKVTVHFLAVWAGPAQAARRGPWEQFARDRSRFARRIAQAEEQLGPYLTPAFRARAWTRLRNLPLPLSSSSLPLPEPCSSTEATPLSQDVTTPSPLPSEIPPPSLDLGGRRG
Experiment: Peg3 promoter luciferase inhibitors, potency, dose response, cell-based, HeLa, CREF/GAPDH counter-screen panel (AID 624167)
Conditions: CREF/GAPDH counter-screens; HeLa PEG-Prom luciferase reporter, overnight, run 2, dose range 1, at 100 µM (top of the series) unless noted

{"columns": ["Molecule", "inhibition / %"],
 "data": [
  ["O=C(/C=C/c1ccc(Cl)c([N+](=O)[O-])c1)c1ccc(O)cc1", 99.1],
  ["Cc1cccc(/C=N/Nc2ccc3ccccc3n2)c1", 101],
  ["OCCN1CCN(C2CCC(c3ccc(F)cc3)c3ccc(F)cc32)CC1 (stereo unspecified)", 101],
  ["COc1ccc(-c2nsc3c(N4CCCCC4C)ncnc23)cc1 (stereo unspecified)", 93.5],
  ["CCCC(=O)NC(c1ccc(Cl)cc1)c1ccc2cccnc2c1O (stereo unspecified)", 98.7],
  ["COc1cc(NC(=O)Nc2nc(C(N)CCc3ccccc3)cs2)cc(OC)c1OC (stereo unspecified)", 97.7]
]}
